The next entries give measured IC50 for CDK9 (Homo sapiens, UniProt P50750).

Sample records with IC50:
N#Cc1ccc(-n2cnc3cc(OCCOCCO)c(NC4CCOCC4)nc32)nc1 ... > 1330 nM
CC(C)[C@H](N)C(=O)OCCOCCOc1cc2ncn(-c3ccc(C#N)cn3)c2nc1NC1CCOCC1 ... 639 nM
N#Cc1ccc(-n2cnc3cc(OCCOCCO)c(N[C@@H]4COCC[C@@H]4O)nc32)nc1 (relative stereo) ... 834 nM

[Q] Look up IC50 for this molecule: C[C@]1(O)CC[C@@H](Nc2nc3c(cc2OCCOCCO)ncn3-c2ccc(C#N)cn2)CC1
[A] 1150 nM

Source of measurements: patent US10508111B2
